target: NS3 protease (dengue virus type 4, UniProt A0A0K0TQ36); assay: Functional biochemical assay to identify treatments for viral infectious disease that targets Dengue virus type 4 NS2B-NS3 protease. Utilizing a direct enzyme activity measurement method, reading the fluorescence intensity is used to characterize the relative potency of inhibitors as IC50.
pIC50: −log10 of the molar value.
property_label: pIC50

>>> print(df.to_string())
                                    molecule  property_label  test_value
 0  O=C(Nc1cc(Cl)cc(C(=O)Nc2cccc(-n3nn[nH]c3=O)c2)c1)OCc1ccccc1           pIC50        4.86
 1  O=C(Nc1ccc2c(c1)CNC2)c1cc(F)c2[nH]ccc2c1           pIC50      < 4.00
 2    O=C1Cc2c(cccc2C(=O)Nc2ccc3c(c2)CNC3)N1           pIC50        4.82
 3  CCOCCNC(=O)[C@H](Nc1ccc2c(c1)CNC2)c1cc(Cl)cc2[nH]ncc12           pIC50      < 4.00
 4  c1cc(C2CCN(Cc3c[nH]c4ccccc34)CC2)c2ccncc2c1           pIC50      < 4.00
 5  CNC(=O)[C@H](Nc1cccc(CN)c1)c1cc(Cl)cc(NC(=O)OCc2ccccc2)c1           pIC50      < 4.00
 6  NCCc1csc2cc(C(=O)Nc3cc([C@H]4CCOC4)ccn3)ccc12           pIC50      < 4.00
 7  O=C(Nc1cc(Cl)cc([C@H]2CN(Cc3ccccc3)C[C@@H]2c2cccc(-c3nn[nH]n3)c2)c1)OCc1ccccc1           pIC50        5.17
 8   O=C(Nc1ccc2c(c1)CNC2)c1cc(Cl)cc2ccncc12           pIC50      < 4.00
 9  Cn1cc2cc(Cl)cc(C(=O)Nc3ccc4c(c3)CNC4)c2n1           pIC50      < 4.00
10  O=C(Nc1ccc2c(c1)CNC2)c1cccc2[nH]c(C(F)(F)F)cc12           pIC50      < 4.00
11   O=C(Nc1ccc2c(c1)CNC2)c1cc(Br)cc2ccccc12           pIC50      < 4.00
12  C=CC[C@H](Nc1cc(Cl)cc(NC(=O)OCc2ccccc2)c1)c1cccc(-c2nn[nH]n2)c1           pIC50        5.11
13  O=C(Nc1ccc2c(c1)CNC2)c1cc(Cl)cc2[nH]ncc12           pIC50      < 4.00
14   O=C(Nc1ccc2c(c1)CNC2)c1cccc(-c2cnco2)c1           pIC50        4.63
15  COc1cc(-c2cc(NC(=O)c3cc(F)cc4[nH]ncc34)cc3c2CNC3)ccn1           pIC50        4.37

* * *

Target: NS3 protease (dengue virus type 4, UniProt A0A0K0TQ36)
Sequence (A0A0K0TQ36 whole entry): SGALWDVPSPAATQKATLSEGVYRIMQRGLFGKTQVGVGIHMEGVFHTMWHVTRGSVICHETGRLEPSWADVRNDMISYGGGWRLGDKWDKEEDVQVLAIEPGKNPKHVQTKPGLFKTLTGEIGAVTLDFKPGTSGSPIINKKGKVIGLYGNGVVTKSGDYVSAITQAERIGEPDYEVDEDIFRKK
Assay: Functional biochemical assay to identify treatments for viral infectious disease that targets Dengue virus type 4 NS2B-NS3 protease. Utilizing a direct enzyme activity measurement method, reading the fluorescence intensity is used to characterize the relative potency of inhibitors as IC50.
Just a reminder that ties go to Not fulfilled: only IC50 strictly below 40 µM counts as Fulfilled.

                                    molecule    group_label
 0  O=C(NCC(F)F)[C@H](Nc1ccc2c(c1)CNC2)c1cc(F)cc2[nH]ncc12  Not fulfilled
 1  CN1Cc2ccc(NC(=O)c3cc(Cl)cc4[nH]ncc34)cc2C1  Not fulfilled
 2  CNC(=O)[C@H](Nc1cc(CN)cc(-c2nn[nH]n2)c1)c1cc(Cl)cc(C2CC2)c1  Not fulfilled
 3  Cn1c(=O)[nH]c2c(C(=O)Nc3ccc4c(c3)CNC4)cc(Br)cc21  Not fulfilled
 4  Cc1[nH]c2ccccc2c1CN1CCC(c2c[nH]c3ncccc23)CC1  Not fulfilled
 5  CNC(=O)[C@H](Nc1ccc2c(c1)CNC2)c1cc(Cl)cc(C2CC2)c1  Not fulfilled
 6  N#C[C@H](Nc1cccc(-c2nn[nH]n2)c1)c1cc(Cl)cc(NC(=O)OCc2ccccc2)c1      Fulfilled
 7  O=C(Nc1ccc2c(c1)CNC2)c1cc(Br)cc2[nH]c(=O)[nH]c12      Fulfilled
 8  NCc1ccc([C@H]2C[C@@H]2c2cc(Cl)cc(NC(=O)OCc3ccccc3)c2)cc1      Fulfilled
 9  O=C(Nc1ccc2c(c1)CNC2)c1cccc2[nH]c(=O)[nH]c12  Not fulfilled
10  CC(C)NC(=O)[C@H](Nc1ccc2c(c1)CNC2)c1cc(Cl)cc2[nH]ncc12  Not fulfilled
11  Cc1nc2c(C(=O)Nc3ccc4c(c3)CNC4)cc(Cl)cc2[nH]1      Fulfilled
12  O=C(Nc1ccc2c(c1)CNCC2)c1cc(Cl)cc2[nH]ncc12  Not fulfilled
13  O=C(NCC(F)F)[C@H](Nc1ccc2c(c1)CNC2)c1cc(Cl)cc(C2CC2)c1  Not fulfilled
14  O=C(Nc1ccc2c(c1)CNC2)c1cc(Cl)cc2cn[nH]c12  Not fulfilled
15     Clc1cc(CNc2ccc3c(c2)CNC3)c2cn[nH]c2c1      Fulfilled
16  O=C(Nc1ccc2c(c1)CNC2)c1ccc2c(C3=CCNCC3)csc2c1  Not fulfilled
17  C=CC[C@H]1NCc2cc(NC(=O)c3cc(F)cc4[nH]ncc34)ccc21  Not fulfilled
18  O=C(Nc1ccc2c(c1)CNC2)c1cc(F)cc2[nH]c(-c3cccc(F)c3)nc12      Fulfilled
19  Cc1cccc(-c2nc3c(C(=O)Nc4ccc5c(c4)CNC5)cc(F)cc3[nH]2)c1      Fulfilled
20     O=C(Nc1ccc2c(c1)CNC2)c1ccc2[nH]ccc2c1  Not fulfilled
21  Cc1cccc(-c2nc3c(C(=O)Nc4ccc5c(c4)CNC5)cc(Cl)cc3[nH]2)c1O      Fulfilled
22  O=C(NCC(F)F)[C@H](Nc1ccc2c(c1)CNC2)c1cc(F)cc2[nH]ccc12  Not fulfilled
23  O=C(NC1CCOCC1)[C@H](Nc1ccc2c(c1)CNC2)c1cc(Cl)cc2[nH]ncc12  Not fulfilled
24  O=C(Nc1cc2c(c(C3=CCS(=O)(=O)CC3)c1)CNC2)c1cc(F)cc2[nH]ncc12  Not fulfilled
25  O=C1Cc2c(cc(F)cc2C(=O)Nc2ccc3c(c2)CNC3)N1  Not fulfilled
26  NCc1cccc(NC(=O)c2cc(Cl)cc(NC(=O)OCc3ccccc3)c2)c1      Fulfilled
27  Cc1c(C(=O)Nc2cc(-c3cccnc3)ccn2)cc(C2CC2)n1C      Fulfilled
28  CC(C)c1nnc(-c2nc3c(C(=O)Nc4ccc5c(c4)CNC5)cc(F)cc3[nH]2)s1      Fulfilled
29  O=C(Nc1ccc2c(c1)CNC2)c1cc(F)cc2[nH]c(-c3ccccc3)nc12      Fulfilled
30  CNC(=O)[C@H](Nc1cc(CN)cc(C(=O)O)c1)c1cc(Cl)cc(C2CC2)c1  Not fulfilled
31  NCc1cccc([C@H]2C[C@@H]2c2cc(Cl)cc(NC(=O)OCc3ccccc3)c2)c1      Fulfilled
32  O=C(Nc1ccc2c(c1)CNC2)c1cc(F)cc2[nH]c(-c3ccccc3F)nc12      Fulfilled
33  NCc1cccc(-c2csc3cc(C(=O)Nc4ccc5c(c4)CNC5)ccc23)c1  Not fulfilled
